Every entry's value here was drawn from patent US9585891B2.

# target: Human recombinant Vanin-1 (VNN1) (Homo sapiens, UniProt O95497)
# Sequence (O95497 22-491): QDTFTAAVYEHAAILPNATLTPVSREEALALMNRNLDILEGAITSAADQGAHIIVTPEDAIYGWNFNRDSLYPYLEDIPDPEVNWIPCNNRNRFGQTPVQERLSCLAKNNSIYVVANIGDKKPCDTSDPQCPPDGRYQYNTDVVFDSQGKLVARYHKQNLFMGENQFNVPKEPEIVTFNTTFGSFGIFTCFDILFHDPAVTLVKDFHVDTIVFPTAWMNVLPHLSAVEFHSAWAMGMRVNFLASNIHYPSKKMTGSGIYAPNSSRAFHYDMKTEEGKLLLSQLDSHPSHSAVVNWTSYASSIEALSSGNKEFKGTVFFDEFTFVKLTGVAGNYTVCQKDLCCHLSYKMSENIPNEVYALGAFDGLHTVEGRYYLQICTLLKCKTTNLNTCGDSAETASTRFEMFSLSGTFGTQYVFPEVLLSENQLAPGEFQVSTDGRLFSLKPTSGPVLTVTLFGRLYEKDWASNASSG
# assay-explanation: Vanin-1 enzymatic assay (fluorescence intensity, Pantothenate-AMC substrate)
# condition-set: purified recombinant human Vanin-1 0.5 nM; 30 min preincubation at 30° C.; Pantothenate-AMC 30 μM, 60 min
experimental-endpoint: IC50

Worked cases, answers included:
compound_string=CC(C)(CO)[C@@H](O)C(=O)NCCC(=O)C(=O)NCc1ccc(S(=O)(=O)N2CCCCC2)cc1 result="< 10 nM"
compound_string=CC(=O)N1CCC(CNC(=O)C(=O)CCNC(=O)[C@H](O)C(C)(C)CO)CC1 result="110 nM"
compound_string=CC(C)(CO)[C@H](O)C(=O)NCCC(=O)C(=O)NCc1ccccc1 result="460 nM"

For every item below, please supply its IC50.
1. CC(=O)CCNC(=O)[C@H](O)C(C)(C)CO
2. CC(C)(CO)[C@@H](O)C(=O)NCCN(CCOc1ccc(Br)cc1)C(=O)CCl

5370 nM
2870 nM

Using the record for CC(C)(CO)[C@@H](O)C(=O)NCCC(=O)C(=O)NCc1ccc(C(=O)NCCc2ccc(Oc3ccccc3)cc2)cc1 , report its IC50.
< 10 nM
